- Test system: goosegrass (Eleusine indica)
- protocol description: Test E greenhouse herbicide test, pre- and postemergence
- Format: in vivo
- condition parameters: 62 g ai/ha, Preemergence; scale 0 to 100 (0 no effect, 100 complete control)
Recorded Plant response rating, Goosegrass, one value per entry.
measurement label: Plant response rating, Goosegrass

[
  {
    "structure": "CCOC(=O)Oc1c(C)nn(C)c(=O)c1-c1c(C)sc2c(C)cc(C)cc12",
    "target system": "goosegrass (Eleusine indica)",
    "measured": 0
  },
  {
    "structure": "CCC(=O)Oc1c(C)nn(C)c(=O)c1-c1c(C)sc2ccc(Cl)cc12",
    "target system": "goosegrass (Eleusine indica)",
    "measured": 25
  },
  {
    "structure": "Cc1cc(C)c2sc(C)c(-c3c(OC(=O)OCCCl)c(C)nn(C)c3=O)c2c1",
    "target system": "goosegrass (Eleusine indica)",
    "measured": 5
  },
  {
    "structure": "CC(=O)Oc1c(C)nn(C)c(=O)c1-c1c(C)cc(C)c2ccccc12",
    "target system": "goosegrass (Eleusine indica)",
    "measured": 40
  }
]

---

Recorded Ragweed plant response rating, one value per entry.
- System: ragweed (common ragweed, Ambrosia elatior)
- protocol description: Test C greenhouse herbicide test, pre- and postemergence
- Type: in vivo
- condition parameters: postemergence, 125 g ai/ha; scale 0 to 100, 0 no effect, 100 complete control

[
  {
    "structure": "CC(=O)Oc1c(Br)nn(C)c(=O)c1-c1c(C)ccc2ccccc12",
    "Ragweed plant response rating": 95
  },
  {
    "structure": "Cc1ccc2ccccc2c1-c1c(OC(=O)N2CCOCC2)c(Br)nn(C)c1=O",
    "Ragweed plant response rating": 0
  },
  {
    "structure": "Cc1nn(C)c(=O)c(-c2cccc3ccc(C#N)cc23)c1O",
    "Ragweed plant response rating": 60
  },
  {
    "structure": "COC(=O)Oc1c(C)nn(C)c(=O)c1-c1c([N+](=O)[O-])ccc2ccccc12",
    "Ragweed plant response rating": 75
  }
]

---

- System: field violet (Viola arvensis)
- protocol description: Test D controlled growth environment herbicide test, pre- and postemergence
- Type: in vivo
- condition parameters: Preemergence, 62 g ai/ha; scale 0 to 100 (0 no effect, 100 complete control)
measurement label: Plant response rating, Field Violet

[
  {
    "structure": "COC(=O)Oc1c(C)nn(C)c(=O)c1-c1c(C)sc2c(C)cc(C)cc12",
    "measured": 80
  },
  {
    "structure": "Cc1cc(C)c2sc(C)c(-c3c(OC(=O)OC(C)C)c(C)nn(C)c3=O)c2c1",
    "measured": 98
  },
  {
    "structure": "Cc1ccc2ccccc2c1-c1c(O)c(C)nn(C)c1=O",
    "measured": 90
  },
  {
    "structure": "CC(=O)Oc1c(C)nn(C)c(=O)c1-c1c(C)sc2ccc(C)cc12",
    "measured": 100
  }
]

---

- System: windgrass (Apera spica-venti)
- protocol description: Test D controlled growth environment herbicide test, pre- and postemergence
- Assay type: in vivo
- condition parameters: Preemergence, 250 g ai/ha; scale 0 to 100 (0 no effect, 100 complete control)

[
  {
    "compound": "Cc1ccc2sc(C)c(-c3c(O)c(C)nn(C)c3=O)c2c1 [Compound 1]",
    "Plant response rating, Windgrass": 100
  },
  {
    "compound": "Cc1nn(C)c(=O)c(-c2c(C)sc3ccc(Cl)cc23)c1O [Compound 104]",
    "Plant response rating, Windgrass": 100
  },
  {
    "compound": "CC(=O)Oc1c(Br)nn(C)c(=O)c1-c1c(C)ccc2ccccc12 [Compound 129]",
    "Plant response rating, Windgrass": 80
  },
  {
    "compound": "CCOC(=O)Oc1c(C)nn(C)c(=O)c1-c1c(C)sc2c(C)cc(C)cc12 [Compound 83]",
    "Plant response rating, Windgrass": 95
  },
  {
    "compound": "CC(=O)Oc1c(C)nn(C)c(=O)c1-c1c(C)cc(C)c2ccccc12 [Compound 153]",
    "Plant response rating, Windgrass": 95
  },
  {
    "compound": "Cc1ccc2ccccc2c1-c1c(O)c(C)nn(C)c1=O [Compound 59]",
    "Plant response rating, Windgrass": 100
  },
  {
    "compound": "Cc1ccc(-c2c(O)c(Br)nn(C)c2=O)c2ccccc12 [Compound 52]",
    "Plant response rating, Windgrass": 10
  }
]

---

- Test system: windgrass (Apera spica-venti)
- protocol description: Test D controlled growth environment herbicide test, pre- and postemergence
- Type: in vivo
- condition parameters: postemergence, 62 g ai/ha; scale 0 to 100, 0 no effect, 100 complete control
Recorded Plant response rating, Windgrass, one value per entry.
measurement label: Plant response rating, Windgrass

[
  {
    "compound": "CC(=O)Oc1c(Br)nn(C)c(=O)c1-c1c(C)ccc2ccccc12 [Compound 129]",
    "measured": 35
  },
  {
    "compound": "Cc1ccc2sc(C)c(-c3c(O)c(C)nn(C)c3=O)c2c1 [Compound 1]",
    "measured": 25
  },
  {
    "compound": "C#CCOC(=O)Oc1c(C)nn(C)c(=O)c1-c1c(C)sc2ccc(C)cc12 [Compound 87]",
    "measured": 85
  },
  {
    "compound": "Cc1ccc(-c2c(O)c(Br)nn(C)c2=O)c2ccccc12 [Compound 52]",
    "measured": 5
  },
  {
    "compound": "CCOC(=O)Oc1c(C)nn(C)c(=O)c1-c1c(C)sc2ccc(C)cc12 [Compound 82]",
    "measured": 75
  },
  {
    "compound": "CCC(=O)Oc1c(C)nn(C)c(=O)c1-c1c(C)sc2ccc(C)cc12 [Compound 42]",
    "measured": 75
  },
  {
    "compound": "COc1nn(C)c(=O)c(-c2c(C)ccc3ccccc23)c1O [Compound 54]",
    "measured": 45
  },
  {
    "compound": "CCC(=O)Oc1c(C)nn(C)c(=O)c1-c1c(C)sc2ccc(Cl)cc12 [Compound 109]",
    "measured": 65
  },
  {
    "compound": "Cc1ccc2ccc(C)c(-c3c(O)c(C)nn(C)c3=O)c2c1 [Compound 60]",
    "measured": 85
  },
  {
    "compound": "Cc1nn(C)c(=O)c(-c2c(C)sc3ccc(Cl)cc23)c1O [Compound 104]",
    "measured": 75
  }
]

---

Recorded Plant response rating, Ryegrass, Italian, one value per entry.
- Test system: ryegrass, Italian (Italian ryegrass, Lolium multiflorum)
- protocol description: Test D controlled growth environment herbicide test, pre- and postemergence
- Assay type: in vivo
- condition parameters: Postemergence, 250 g ai/ha; scale 0 to 100 (0 no effect, 100 complete control)
measurement label: Plant response rating, Ryegrass, Italian

[
  {
    "molecule": "CC(=O)Oc1c(C)nn(C)c(=O)c1-c1ccc(F)c2ccccc12 [Compound 90]",
    "measured": 100
  },
  {
    "molecule": "CCC(=O)Oc1c(C)nn(C)c(=O)c1-c1c(C)sc2c(C)cc(C)cc12 [Compound 28]",
    "measured": 85
  },
  {
    "molecule": "COc1nn(C)c(=O)c(-c2c(C)ccc3ccccc23)c1O [Compound 54]",
    "measured": 95
  },
  {
    "molecule": "Cc1cc(C)c2sc(C)c(-c3c(OC(=O)OC(C)C)c(C)nn(C)c3=O)c2c1 [Compound 67]",
    "measured": 100
  },
  {
    "molecule": "CC(=O)Oc1c(C)nn(C)c(=O)c1-c1c(C)cc(C)c2ccccc12 [Compound 153]",
    "measured": 90
  }
]

---

Recorded Plant response rating, Panicum, Fall, one value per entry.
- Test system: panicum, fall (fall panicum, Panicum dichotomiflorum)
- protocol description: Test E greenhouse herbicide test, pre- and postemergence
- Assay type: in vivo
- condition parameters: 250 g ai/ha, Postemergence; scale 0 to 100 (0 no effect, 100 complete control)
measurement label: Plant response rating, Panicum, Fall

[
  {
    "structure": "CC(=O)Oc1c(C)nn(C)c(=O)c1-c1c(C)cc(C)c2ccccc12",
    "target system": "panicum, fall (fall panicum, Panicum dichotomiflorum)",
    "measured": 90
  },
  {
    "structure": "Cc1ccc2sc(C)c(-c3c(O)c(C)nn(C)c3=O)c2c1",
    "target system": "panicum, fall (fall panicum, Panicum dichotomiflorum)",
    "measured": 85
  },
  {
    "structure": "CCOC(=O)Oc1c(C)nn(C)c(=O)c1-c1c(C)sc2c(C)cc(C)cc12",
    "target system": "panicum, fall (fall panicum, Panicum dichotomiflorum)",
    "measured": 90
  },
  {
    "structure": "Cc1cc(C)c2sc(C)c(-c3c(OC(=O)OCCCl)c(C)nn(C)c3=O)c2c1",
    "target system": "panicum, fall (fall panicum, Panicum dichotomiflorum)",
    "measured": 95
  },
  {
    "structure": "CCOC(=O)Oc1c(C)nn(C)c(=O)c1-c1c(C)sc2ccc(C)cc12",
    "target system": "panicum, fall (fall panicum, Panicum dichotomiflorum)",
    "measured": 75
  },
  {
    "structure": "CCC(=O)Oc1c(C)nn(C)c(=O)c1-c1c(C)sc2ccc(C)cc12",
    "target system": "panicum, fall (fall panicum, Panicum dichotomiflorum)",
    "measured": 95
  },
  {
    "structure": "CSCC(=O)Oc1c(C)nn(C)c(=O)c1-c1cccc2ccccc12",
    "target system": "panicum, fall (fall panicum, Panicum dichotomiflorum)",
    "measured": 75
  }
]
